Attribution: patent US20250381181A1

- Test system: Human CD79 mutation-positive DLBCL cell line
- ASSAY_NOTES: Combination of Compound A and Btk inhibitor or Bcl-2 inhibitor, cell viability (Cell Counting Kit-8)
- Type: cell-based
- TEST_PARAMETERS: combined treatment with Compound A (10, 30 or 100 nmol/L), 6 days
Tag: Yes if measured Combination index (CI) value, median is not below 0.8, No if it is.

CC1(C)CCC(CN2CCN(c3ccc(C(=O)NS(=O)(=O)c4ccc(NCC5CCOCC5)c([N+](=O)[O-])c4)c(Oc4cnc5[nH]ccc5c4)c3)CC2)=C(c2ccc(Cl)cc2)C1 ... No
CC#CC(=O)N1CC[C@@H](n2c(=O)n(-c3ccc(Oc4ccccc4)cc3)c3c(N)ncnc32)C1 ... No
CC#CC(=O)N1CCC[C@H]1c1nc(-c2ccc(C(=O)Nc3ccccn3)cc2)c2c(N)nccn12 ... Yes
O=C(c1ccc(Oc2ccccc2)cc1Cl)c1c[nH]c2ncnc(N[C@@H]3CC[C@@H](CO)OC3)c12 ... No

Consider now this further compound.
Inquiry: Confirm if Combination index (CI) value, median reported for the compound COc1ccc(F)cc1C(=O)NCc1ccc(-c2nn([C@@H](C)C(F)(F)F)c(N)c2C(N)=O)cc1 is 0.8 or above.
Reply text: No

* * *

- Tested on: Human MCL cell line
- ASSAY_NOTES: Combination of Compound A and Btk inhibitor or Bcl-2 inhibitor, cell viability (Cell Counting Kit-8)
- Assay type: cell-based
- TEST_PARAMETERS: combined treatment with Compound A (10, 30 or 100 nmol/L), 6 days
Tag: Condition met if measured Combination index (CI) value, median is not below 0.8, Condition not met if it is.

Some solved cases for reference:
C=CC(=O)N1CCC([C@@H]2CCNc3c(C(N)=O)c(-c4ccc(Oc5ccccc5)cc4)nn32)CC1 ... Condition not met
CC#CC(=O)N1CCC[C@H]1c1nc(-c2ccc(C(=O)Nc3ccccn3)cc2)c2c(N)nccn12 ... Condition met
CC1(C)CCC(CN2CCN(c3ccc(C(=O)NS(=O)(=O)c4ccc(NCC5CCOCC5)c([N+](=O)[O-])c4)c(Oc4cnc5[nH]ccc5c4)c3)CC2)=C(c2ccc(Cl)cc2)C1 ... Condition not met
COc1ccc(F)cc1C(=O)NCc1ccc(-c2nn([C@@H](C)C(F)(F)F)c(N)c2C(N)=O)cc1 ... Condition not met

Consider now this further compound.
Inquiry: Confirm if Combination index (CI) value, median reported for the compound O=C(c1ccc(Oc2ccccc2)cc1Cl)c1c[nH]c2ncnc(N[C@@H]3CC[C@@H](CO)OC3)c12 is 0.8 or above.
Reply text: Condition met
